Where do these numbers come from? They come from a melting point compilation (Tetko et al.; mined from patent text by program, amines drawn as free bases though some values may be those of a salt).

value.type: melting point

# compound, melting point
measured = [
    ("CN(c1cccc2cc(C3=NCC(CN4CCOCC4)S3)[nH]c12)S(=O)(=O)c1cccnc1 (configuration not stated)", "234 to 236 °C"),
    ("COCC(=O)Nc1ccc(C2=NNC(=O)C3CC23)cc1 (configuration not stated)", "206 °C"),
    ("CCOC(=O)c1c[nH]c(Br)c1-c1ccc(Cl)cc1", "161 to 164 °C"),
    ("CS(=O)(=O)c1ccc(C(=O)O)c(Cl)c1OC1COC1", "180 to 183 °C"),
]

Give recorded melting point. Cc1nn(-c2ccccn2)c2[nH]c3ccc(S(C)(=O)=O)cc3c(=O)c12
> 300 °C

Answer with reported melting point of O=C(Nc1ccc(Cl)cc1)C(Oc1cccc2ccccc12)C1CC1 (configuration not stated)
204 to 206 °C

Specify reported melting point for the compound shown: C[C@@H](NC(=O)C1(C)CC(F)(F)C1)c1ccc(Br)cc1
120 to 122 °C

Consider the compound CS(=O)(=O)Nc1cccc(S(F)(F)(F)(F)F)c1 . State its measured melting point.
80 to 82 °C

Give a short answer stating reported melting point for C=CCOC(=O)c1c(C)nc2c(cnn2CCC(C)CC)c1N (configuration not stated) .
85 to 86 °C

Identify melting point associated with the compound COC(=O)C(C#N)=Cc1cc2c(cc1C)N(CCOC(C)=O)C(C)(C)CC2C (configuration not stated)
134 to 135 °C

# return recorded melting point for entry O=S(=O)(c1ccc(Nc2nccc(-c3ccc(C(F)(F)F)cc3)n2)cc1)N1CCOCC1
240 to 241 °C

* * *

We begin with a simple list: items and their reported melting point.

Take a look at these entries with their results.
# compound, melting point
measured = [
    ("O=C(O)C1COc2ccc(Cl)c(Cl)c2O1 (stereo not given)", "144 to 148 °C"),
    ("Nc1nc2ccccc2c2c1ncn2CC1CCCCO1 (stereo not given)", "206 to 210 °C"),
    ("O=c1nc(Nc2ccc(I)cc2)sc2ncccc12", "263 to 264 °C"),
    ("O=c1ccoc(C=Cc2ccc(O)cc2)c1", "198 to 201 °C"),
    ("COc1ccc2c(c1)C(=O)C(Cc1cccc(NS(=O)(=O)C(F)(F)F)c1)CO2 (stereo not given)", "114 to 116 °C"),
    ("N#CCN1C(=O)COc2cc(F)c(N3C(=O)C4=C(CCCC4)C3=O)cc21", "216 to 220 °C"),
]

Let us move to another entry and its melting point.
Give reported melting point value for O=C(Nc1ncnc2c1ncn2CC(O)CF)c1ccccc1 (racemic)
197 °C

* * *

value.type: melting point

// below: answered compounds
# compound, value.type, assay.result
rows = [
    ("Cc1cc(C)c2nc(-c3cnc(NCCCC4CCN(C)CC4)nc3C)[nH]c2c1", "melting point", "179 °C"),
    ("CCOC(=O)c1c(-c2ccccc2Cl)c2cc(C)cc(C)c2[nH]c1=O", "melting point", "257 to 258 °C"),
    ("O=C1CN2C(=O)C(c3ccccc3)c3cc(Cl)cc(c32)N1 (centres undefined)", "melting point", "156 to 159 °C"),
    ("CNc1nc(-c2ccccc2)c(-c2nc3ccccc3c(=O)n2-c2ccccc2OC)s1", "melting point", "241 to 243 °C"),
    ("C#CCN(Cc1ccc2nc(C)[nH]c(=O)c2c1)c1ccc(C(=O)NCC2CCNCC2)cc1", "melting point", "130 to 133 °C"),
    ("CN(C)Cc1nc(C=O)nn1-c1ccc(Cl)cc1C(=O)c1ccccc1", "melting point", "178 to 181 °C"),
]

// fetch melting point given entry CS(=O)(=O)Nc1ccccc1NC1=CC=NC(Nc2ccc3c(c2)CNCCS3)N1Cl (centres undefined)
141 to 143 °C

Given Cc1ccc(NC(=O)c2ccc(/C=C/C(=O)NO)cc2)cc1Nc1nc(-c2cccnc2)cs1 , respond with its melting point.
154 °C

Return the recorded melting point value; entry: O=c1n(-c2ccccc2)nc2n1-c1ccccc1Oc1ccccc1-2
176 to 177 °C

* * *

value.type: melting point

Worked set:
# molecule, value.type, assay.result
measured = [
    ("Cc1ccc(-n2c3c(c(=O)c4cccnc42)CCO3)cc1", "melting point", "246 to 248 °C"),
    ("O=C(O[C@H]1Cc2c(O)cc(O)cc2O[C@@H]1c1ccc(O)cc1)c1cc(O)c(O)c(O)c1", "melting point", "96 to 98 °C"),
    ("CCCCCCc1cc2c(s1)NC(=O)C(C)N=C2c1ccccc1C (stereo not given)", "melting point", "173 to 175 °C"),
]

Could you please provide reported melting point for N#CCCNC(=S)C1CC(CF)(CF)Oc2ccc([N+](=O)[O-])cc21 (stereo not given) ? Thanks!
183 to 184 °C

Identify melting point associated with the molecule CCN(CC)CCCNc1ccc(-c2ccnc(Nc3cc(OC)c(OC)c(OC)c3)n2)cn1
67 °C

* * *

value.type: melting point

Answered cases to consult:
# compound, assay.result
records = [
    ("O=C1CCC(c2ccccc2)(c2ccccc2)[C@@H]2CN(C(=O)Cc3c(F)cccc3F)C[C@H]12 (racemic)", "218 °C"),
    ("O=C1C(c2ccccc2)CC=C2c3ccsc3CCN12 (stereo not given)", "159 to 161 °C"),
    ("O=C(O)c1ccc2c(c1)C(=O)c1ccccc1OC2", "264 to 269 °C"),
    ("O=P(O)(O)CCCCCCCCCCCC(F)(F)C(F)(F)C(F)(F)C(F)(F)C(F)(F)C(F)(F)C(F)(F)C(F)(F)F", "115 to 117 °C"),
    ("Cc1cc(C)c2c3ccccc3c(=O)n(CCN(C)C)c2n1", "128 to 130 °C"),
]

Tell me melting point reported for O=C1CCCc2c1c1cc(F)ccc1n2Cc1ccc(F)cc1
182 to 183 °C

Entry C=C(C(=O)N1CCOCC1)c1cccc(-c2cc3c(cc2C)C(C)(C)CCC3(C)C)c1 needs its melting point filled in; supply it.
158 to 159 °C

Answer with reported melting point of c1ccc(-c2cn3c4c(sc3n2)CCCC4)cc1
158 to 160 °C

Give the reported melting point for this compound. CCOc1cnc(C(C)C)nc1O
154 °C

Consider the compound CCOC(=O)COc1ccc(C(=O)Nc2ccccc2S(=O)(=O)c2ccccc2C#N)cc1 . State its measured melting point.
131 to 132 °C

* * *

The reader will find reported melting point values listed item by item below.

Example entries and their recorded answers appear below.
# compound, melting point
measured = [
    ("C=C=CS(=O)(=O)c1ncn(C(=O)N(CC)CC)n1", "98 to 100 °C"),
    ("O=C(NCCBr)C1=C(C(=O)Nc2ccc(Cl)cc2F)CCCC1", "165 to 166 °C"),
    ("CC1(C)Oc2ccc(Cl)cc2[C@@H](N2CCCC2=O)[C@@H]1O (relative stereo)", "202 to 203 °C"),
]

Determine from records and report melting point for C=CCOC(=O)c1cccc(NC(=O)NC(CC(=O)OC(C)(C)C)C(=O)Nc2ccccc2C(=O)c2ccc(OC)cc2)c1 (stereo not given)
190 to 191 °C

Fill in melting point for record CCOC(=O)c1cccc(-c2ccc3c(n2)C(O)CC3)c1 (stereo not given)
46 to 47 °C

* * *

List of melting point values.

# molecule, value.type, assay.result
rows = [
    ("O=C(Nc1cn(C2CCCCO2)nc1C(=O)NCCC(F)(F)F)c1ccccn1 (stereo not given)", "melting point", "144 to 145 °C"),
    ("Nc1ccc(-c2ccc(N)c([N+](=O)[O-])c2)cc1[N+](=O)[O-]", "melting point", "275 °C"),
    ("O=C(Cc1ccccc1)c1cc(O)c(O)c([N+](=O)[O-])c1", "melting point", "181 to 182 °C"),
    ("CCCOc1ccccc1-c1nc2cc(NC)ccc2c(=O)[nH]1", "melting point", "204 to 205 °C"),
]

Consider the molecule CCCCCCCc1ccccc1C=CC(=O)c1ccc(OCC=C(C)C)cc1OCC(=O)O and give its recorded melting point.
118 to 121 °C

* * *

value.type: melting point

# molecule, melting point
measured = [
    ("CC(C)(C)OCCCNC(=O)c1nn(C2CCCCO2)cc1NC(=O)c1ccccn1 (stereo not drawn)", "101 to 103 °C"),
    ("Cc1ccc(S(=O)(=O)Nc2cccc3c2Nc2ccc(O)cc2CO3)s1", "184 to 188 °C"),
    ("COc1ccc(N2CCN(c3c(C)c(C)c4c(c3C)C(c3ccc(F)nc3)C(C)(C)O4)CC2)cc1 (stereo not drawn)", "87 to 88 °C"),
    ("C=C(CN(C)C)C(O)c1ncc2c(c1O)COC2C1CCCCC1 (stereo not drawn)", "180 to 184 °C"),
    ("COC(=O)C1=C(C)NC(C)=C(C(=O)OCCN2CCC(C(c3ccccc3)c3ccccc3)CC2)C1c1cccc([N+](=O)[O-])c1 (stereo not drawn)", "82 to 85 °C"),
]

# return recorded melting point for input CC(C(O)c1ccc2c(c1)CCCS2)N1CCN(C(=O)C=Cc2ccccc2Cl)CC1 (stereo not drawn)
206 to 209 °C

Please report the measured melting point for CSc1nc(-c2ccncc2)n(-c2ccc(C(C)C)cc2)c(=O)c1C#N
173 to 175 °C

Identify measured melting point corresponding to Nc1nc2nc(N3CCNCC3)nc(N)c2nc1-c1ccccc1
233 to 236 °C

Supply melting point value. Item: CC(=O)N1CCc2c(c3ccc(-n4ccc(OCc5ccccc5)cc4=O)cc3n2C)C1
225 to 230 °C

Dear colleague, please send me the reported melting point for CCOC(=O)c1cn(Cc2ccc(Oc3ccccc3)cc2)nc1OCc1nc(-c2ccccc2)oc1C when you can.
96 to 97 °C

Read off the recorded melting point for CC(O)c1ccc2cc(S(N)(=O)=O)sc2c1 (stereo not drawn)
134 to 135 °C
